Tested on: HT-29
Experiment summary: NCI tumour cell line growth inhibition, 48 h
Activity calls are given as the source filed them. Cut-off read from the data, not from the text of the source: active = GI50 up to about 1.1 µM and inactive = higher.
Listed here are molecules together with their documented GI50.

{"columns": ["Molecule", "GI50"],
 "data": [
  ["COc1ccc(S(=O)(=O)NNS(C)(=O)=O)cc1", "> 100 µM (inactive)"],
  ["CNC(=S)OCCC(C)CCCC(C)C (stereo unspecified)", "17.3 µM (inactive)"],
  ["CCCSc1ccc2[nH]c(/N=C/c3ccco3)cc2c1", "14.3 µM (inactive)"],
  ["O=C(c1ccccc1)n1cc(-c2ccccc2)c2c(=O)nc[nH]c21", "> 100 µM (inactive)"],
  ["CN(C)CCNC(=O)c1ccccc1Nc1c(Cl)cccc1Cl", "6.75 µM (inactive)"],
  ["Cc1ccc(C)c(NC(=O)CCc2nnc(S)[nH]2)c1", "> 100 µM (inactive)"],
  ["O=C(O)Cc1c[nH]c2ccc(F)cc12", "> 100 µM (inactive)"],
  ["N/N=C1\\C(=O)N(c2ccc(Cl)c(Cl)c2)C(=O)C1C(=O)Nc1ccc(Cl)c(Cl)c1 (stereo unspecified)", "49.9 µM (inactive)"],
  ["NC(=O)c1cc(N2CC2)c([N+](=O)[O-])cc1[N+](=O)[O-]", "> 100 µM (inactive)"],
  ["NC(=S)NN=Cc1ccccc1OCc1cccc(COc2ccccc2C=NNC(N)=S)n1", "> 100 µM (inactive)"],
  ["O=P1(c2ccccc2)C(c2ccccc2)=CC=C1c1ccccc1", "10.3 µM (inactive)"],
  ["O=[N+]([O-])c1ccc(/N=N/c2c(O)ccc3cc(S(=O)(=O)O)cc(S(=O)(=O)O)c23)cc1", "> 100 µM (inactive)"],
  ["C=CCOc1ccc(C(=N/NC(=O)c2ccccc2)/N=N/c2ccccc2)cc1OC", "46.5 µM (inactive)"],
  ["O=C1CCc2cc(Br)ccc2O1", "> 100 µM (inactive)"],
  ["COc1ccc(/C=C2\\CCC(CNc3ccc(S(N)(=O)=O)cc3)C2=O)cc1 (stereo unspecified)", "10.2 µM (inactive)"],
  ["COc1ccc([C@@H]2OC(=O)C3C2C(=O)O[C@H]3c2ccc(OC)c(OC)c2)cc1OC (stereo partly specified)", "> 100 µM (inactive)"],
  ["O=S(=O)(Nc1nc2ccccc2nc1N1CCCCCC1)c1ccccc1", "27.6 µM (inactive)"],
  ["COC1=CC(=O)C=C(OC)C1=O", "27.4 µM (inactive)"],
  ["Oc1c(Br)cc(Br)cc1CN(Cc1cc(Br)cc(Br)c1O)C1CCCCC1", "23.7 µM (inactive)"],
  ["COc1ccc([C@]23CCC4(OCC(C)(C)CO4)[C@H]4CON(O[C@H](O[C@@H]5CCCCC5C(C)(C)c5ccccc5)C2)[C@@H]43)cc1OC (stereo partly specified)", "44 µM (inactive)"],
  ["CC(=O)OC1COC(N2CCc3cc([N+](=O)[O-])ccc32)C(OC(C)=O)C1OC(C)=O (stereo unspecified)", "> 100 µM (inactive)"]
]}
